Cited source for all entries: patent US20230020161A1

Target Under Test: Human Pregnane X Receptor (PXR, NR1I2) (Homo sapiens)
Construct: host or cells: DPX2 cells of the kit
Sequence (O75469 1-434): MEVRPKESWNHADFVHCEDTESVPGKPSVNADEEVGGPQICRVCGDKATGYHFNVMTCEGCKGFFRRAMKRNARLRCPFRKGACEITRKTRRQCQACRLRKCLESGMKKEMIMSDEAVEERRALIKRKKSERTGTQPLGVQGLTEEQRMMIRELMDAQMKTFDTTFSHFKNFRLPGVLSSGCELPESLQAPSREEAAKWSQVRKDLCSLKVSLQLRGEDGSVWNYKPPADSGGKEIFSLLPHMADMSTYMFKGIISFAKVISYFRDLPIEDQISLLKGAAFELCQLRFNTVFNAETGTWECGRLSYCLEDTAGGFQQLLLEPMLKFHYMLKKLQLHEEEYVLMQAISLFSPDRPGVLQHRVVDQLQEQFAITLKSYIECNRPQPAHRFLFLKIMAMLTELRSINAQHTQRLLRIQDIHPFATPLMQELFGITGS
Assay Text: PXR activation assay (Puracyp DPX2-96-001)
Format: cell-based
Setup Conditions: Concentration observed is at 10 μM
Test Readout: Percent positive control response

The value of Percent positive control response measured for the molecule O=S(=O)(N[C@@H]1COC[C@H](n2c3ccc(Cl)cc3c3cc(Cl)ccc32)[C@H]1O)c1ccc(OC(F)(F)F)cc1 [Target T16, reference compound] turned out to be 16.7%

The value of Percent positive control response measured for the molecule N=[S@@](=O)(N[C@@H]1CCC[C@H](N2c3ccccc3Oc3ccccc32)[C@H]1O)c1ccc(OC(F)(F)F)cc1 (relative stereo) turned out to be 26%

The value of Percent positive control response measured for the molecule N=[S@](=O)(N[C@@H]1CCC[C@H](N2c3ccccc3Oc3ccccc32)[C@H]1O)c1ccc(OC(F)(F)F)cc1 (relative stereo) turned out to be 24.2%
